- System: IL6
- assay.summary: R848 stimulated IL6 inhibition assay in PBMC
- Assay type: cell-based
- conditions.used: PBMC; human PBMCs, R848 stimulation, compound overnight, IL6 by MSD after 24 hrs; read-out: R848 stim IL6 inhibition IC50
Listed next: entries and their corresponding IC50.

compound: O=C1CCC(N2C(=O)c3ccc(N4CCC(CN5CCC(N6Cc7cc(NC(=O)c8cnn9cccnc89)c(N8CCN(C9CC(F)(F)C9)CC8)cc7C6=O)CC5)CC4)cc3C2=O)C(=O)N1 (stereo not shown)
IC50: 10 to 50 nM
--
compound: O=C1CCC(N2C(=O)c3ccc(N4CC(F)(CN5CCC(n6cc7cc(NC(=O)c8cnn9cc(Cl)cnc89)c(OCC8CC8)cc7n6)CC5)C4)cc3C2=O)C(=O)N1 (stereo not shown)
IC50: 50 to 100 nM
--
compound: O=C1CCC(N2Cc3c(ccc(N4CCC(CN5CCC(n6cc7cc(NC(=O)c8cnn9cccnc89)c(OCC(F)F)cc7n6)CC5)CC4)c3F)C2=O)C(=O)N1 (stereo not shown)
IC50: < 10 nM
--
compound: CC(C)Oc1cc2c(cc1NC(=O)c1cnn3cccnc13)CN(C1CCN(CC3CCN(c4ccc5c(c4)C(=O)N(C4CCC(=O)NC4=O)C5)CC3)CC1)C2=O (stereo not shown)
IC50: 50 to 100 nM
--
compound: CC(C)Oc1cc2c(cc1NC(=O)c1cnn3cccnc13)CN(C1CCN(C(C)(C)C3CCN(c4ccc5c(c4)CN(C4CCC(=O)NC4=O)C5=O)CC3)CC1)C2=O (stereo not shown)
IC50: 10 to 50 nM
--
compound: Cn1c(=O)n(C2CCC(=O)NC2=O)c2cccc(N3CC(N(C)[C@H]4CC[C@H](n5cc6cc(NC(=O)c7cnn8cccnc78)c(OCC7CC7)cc6n5)CC4)C3)c21 (stereo partly shown)
IC50: 10 to 50 nM
--
compound: CC(C)Oc1cc2c(cc1NC(=O)c1cnn3cccnc13)CN(C1CCN(CC3(F)CN(c4ccc5c(c4)C(=O)N(C4CCC(=O)NC4=O)C5)C3)CC1)C2=O (stereo not shown)
IC50: 10 to 50 nM
--
compound: CN(CC1CCN(c2ccc3c(c2)C(=O)N(C2CCC(=O)NC2=O)C3=O)CC1)[C@H]1CC[C@H](n2cc3cc(NC(=O)c4cnn5cccnc45)c(OCC(F)F)cc3n2)CC1 (stereo partly shown)
IC50: < 10 nM
--
compound: O=C1CCC(N2C(=O)c3ccc(N4CCCC5(C4)CN([C@H]4CC[C@H](n6cc7cc(NC(=O)c8cnn9cccnc89)c(OCC8CC8)cc7n6)CC4)C5)cc3C2=O)C(=O)N1 (stereo partly shown)
IC50: < 10 nM
--
compound: O=C1CCC(N2Cc3cc(N4CCC(CN5CCC(n6cc7cc(NC(=O)c8cnn9cccnc89)c(N8CCN(CC(F)F)CC8)cc7n6)CC5)CC4)ccc3C2=O)C(=O)N1 (stereo not shown)
IC50: 10 to 50 nM
--
compound: CC(C)Oc1cc2c(cc1NC(=O)c1cnn3cccnc13)CN([C@H]1CC[C@H](N(C)C3CN(c4ccc5c(c4)C(=O)N(C4CCC(=O)NC4=O)C5=O)C3)CC1)C2=O (stereo partly shown)
IC50: < 10 nM
--
compound: O=C1CCC(N2C(=O)c3ccc(N4CCC(CN5CCC(n6cc7cc(NC(=O)c8cnn9cccnc89)c(N8CCN(CC(F)F)CC8)cc7n6)CC5)CC4)cc3C2=O)C(=O)N1 (stereo not shown)
IC50: 10 to 50 nM
--
compound: Cn1c(=O)n(C2CCC(=O)NC2=O)c2cccc(N3CC(CN4CCC(n5cc6cc(NC(=O)c7cnn8cccnc78)c(OCC7CC7)cc6n5)CC4)C3)c21 (stereo not shown)
IC50: < 10 nM
